Cited source: ChEMBL document CHEMBL1134446

Items are presented alongside their recorded Stool output.
System: Rattus norvegicus
Assay: Stool output of rat over the 6-h collection period when a dose of 0 mg/kg (0 administered
Format: functional
MEASUREMENT NAME: Stool output

[[record]]
molecule = "CCNCCCNC1CCC(NCCCNCC)CC1 (stereo unspecified)"
system = "Rattus norvegicus"
measurement_name = "Stool output"
val = "4.9 g (350g of rat weight)-1"

[[record]]
molecule = "CCCCNCCCNCCCCNCCCNCCCC"
system = "Rattus norvegicus"
measurement_name = "Stool output"
val = "4.6 g (350g of rat weight)-1"

[[record]]
molecule = "CC(C)NCCCNCCCCNCCCNC(C)C"
system = "Rattus norvegicus"
measurement_name = "Stool output"
val = "6.8 g (350g of rat weight)-1"

[[record]]
molecule = "c1ccc(CNCCCNCCCCNCCCNCc2ccccc2)cc1"
system = "Rattus norvegicus"
measurement_name = "Stool output"
val = "6.2 g (350g of rat weight)-1"

[[record]]
molecule = "CCCNCCCNCCCCNCCCNCCC"
system = "Rattus norvegicus"
measurement_name = "Stool output"
val = "6 g (350g of rat weight)-1"

[[record]]
molecule = "FC(F)(F)CNCCCNCCCCNCCCNCC(F)(F)F"
system = "Rattus norvegicus"
measurement_name = "Stool output"
val = "7.2 g (350g of rat weight)-1"

[[record]]
molecule = "CC(C)CCNCCCNCCCCNCCCNCCC(C)C"
system = "Rattus norvegicus"
measurement_name = "Stool output"
val = "4.6 g (350g of rat weight)-1"

[[record]]
molecule = "C(CCNC1CCNCC1)CNC1CCNCC1"
system = "Rattus norvegicus"
measurement_name = "Stool output"
val = "4.2 g (350g of rat weight)-1"

[[record]]
molecule = "c1cc(NCCCCNc2ccncc2)ccn1"
system = "Rattus norvegicus"
measurement_name = "Stool output"
val = "5.6 g (350g of rat weight)-1"

[[record]]
molecule = "CCNCCCNCCCCNCCCNCC [BIS(ETHYL)SPERMINE]"
system = "Rattus norvegicus"
measurement_name = "Stool output"
val = "7.5 g (350g of rat weight)-1"

[[record]]
molecule = "CC(C)CNCCCNCCCCNCCCNCC(C)C"
system = "Rattus norvegicus"
measurement_name = "Stool output"
val = "7.2 g (350g of rat weight)-1"

